Tested on: TFEB
Experiment: TFEB nuclear translocation assay, HeLa wt cells
Assay type: cell-based
Settings: Homo sapiens, HeLa, 2 h, 2 hrs compound treatment, Table 1 does not say HeLa wt or TRPML1 KO
Readout kind: AC50

Example entries and their recorded answers appear below.
CN(C)S(=O)(=O)c1ccc(S(=O)(=O)n2cnc(N3CCC(c4ccc(Cl)cc4F)CC3)n2)cc1 [Compound A-62] :: 8010 to 9990 nM
CN(C)S(=O)(=O)c1ccc(S(=O)(=O)Cc2cc(Cl)ccc2N2CCOCC2)cc1 [Compound A-312] :: ≥ 10000 nM
CN(C)S(=O)(=O)c1ccc(S(=O)(=O)Nc2cccc(C#CC(F)F)c2N2CCCCC2)cc1 [Compound A-921] :: ≤ 2000 nM
CN(C)S(=N)(=O)c1ccc(S(=O)(=O)Nc2cc(F)ccc2N2CCC(c3c(F)cccc3F)CC2)cc1 (stereo not shown) [Compound A-228] :: ≤ 2000 nM

// fetch AC50 for COCC1(C)CCN(c2ccccc2NS(=O)(=O)c2ccc(C(F)F)cc2)CC1 [Compound A-620] ; system: TFEB
≤ 2000 nM

// fetch AC50 for Cc1ccc(CS(=O)(=O)Nc2ccccc2N2CCN(C(=O)C(C)(C)C)CC2)cc1C [Compound A-486] ; system: TFEB
2010 to 8000 nM

// fetch AC50 for CC(c1cccnc1N1CCC(CN2CCC(F)(F)CC2)CC1)S(=O)(=O)c1ccc(S(=O)(=O)N(C)C)cc1 (stereo not shown) [Compound A-987] ; system: TFEB
≤ 2000 nM
